assay: Solubility of the saturated solution in aqueous media; type: physicochemical; conditions: McIlvaine buffer, aqueous buffer, thermodynamic from solid; McIlvaine pH 4.5; intrinsic pH 4.6; 48 h shaking at room temperature; read-out: solubility RT - values
Reported endpoint: solubility at 48 h (µg/mL)
Express your answer in µg/mL, writing the number without its unit.

Determine from records and report solubility at 48 h for CC(C)c1nc2c(c3c1[C@@H](c1ccc(C(F)(F)F)cc1)OC31CCOCC1)[C@@H](O)CC(C)(C)C2.Cl [crystalline hydrochloride salt form] 30

These measurements were taken from patent US20130210851A1.
